Hello, the source for this data is ChEMBL document CHEMBL2440090, in case you need it.

target: Serine/threonine-protein kinase mTOR (Homo sapiens, UniProt P42345)

[
  {
    "compound smiles": "Cc1nnc(-c2cccc(-c3cnn4ccc(NCCN)nc34)c2)o1",
    "IC50": "> 3 µM"
  }
]
